The reported measurements were obtained from paper PMC4336329.

assay.target: human ether-à-go-go-related gene (hERG) potassium channel (human);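 note: peak tail current of the secondary pulse compared with the same well before compound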
Sequence (Q12809 whole entry, looked up): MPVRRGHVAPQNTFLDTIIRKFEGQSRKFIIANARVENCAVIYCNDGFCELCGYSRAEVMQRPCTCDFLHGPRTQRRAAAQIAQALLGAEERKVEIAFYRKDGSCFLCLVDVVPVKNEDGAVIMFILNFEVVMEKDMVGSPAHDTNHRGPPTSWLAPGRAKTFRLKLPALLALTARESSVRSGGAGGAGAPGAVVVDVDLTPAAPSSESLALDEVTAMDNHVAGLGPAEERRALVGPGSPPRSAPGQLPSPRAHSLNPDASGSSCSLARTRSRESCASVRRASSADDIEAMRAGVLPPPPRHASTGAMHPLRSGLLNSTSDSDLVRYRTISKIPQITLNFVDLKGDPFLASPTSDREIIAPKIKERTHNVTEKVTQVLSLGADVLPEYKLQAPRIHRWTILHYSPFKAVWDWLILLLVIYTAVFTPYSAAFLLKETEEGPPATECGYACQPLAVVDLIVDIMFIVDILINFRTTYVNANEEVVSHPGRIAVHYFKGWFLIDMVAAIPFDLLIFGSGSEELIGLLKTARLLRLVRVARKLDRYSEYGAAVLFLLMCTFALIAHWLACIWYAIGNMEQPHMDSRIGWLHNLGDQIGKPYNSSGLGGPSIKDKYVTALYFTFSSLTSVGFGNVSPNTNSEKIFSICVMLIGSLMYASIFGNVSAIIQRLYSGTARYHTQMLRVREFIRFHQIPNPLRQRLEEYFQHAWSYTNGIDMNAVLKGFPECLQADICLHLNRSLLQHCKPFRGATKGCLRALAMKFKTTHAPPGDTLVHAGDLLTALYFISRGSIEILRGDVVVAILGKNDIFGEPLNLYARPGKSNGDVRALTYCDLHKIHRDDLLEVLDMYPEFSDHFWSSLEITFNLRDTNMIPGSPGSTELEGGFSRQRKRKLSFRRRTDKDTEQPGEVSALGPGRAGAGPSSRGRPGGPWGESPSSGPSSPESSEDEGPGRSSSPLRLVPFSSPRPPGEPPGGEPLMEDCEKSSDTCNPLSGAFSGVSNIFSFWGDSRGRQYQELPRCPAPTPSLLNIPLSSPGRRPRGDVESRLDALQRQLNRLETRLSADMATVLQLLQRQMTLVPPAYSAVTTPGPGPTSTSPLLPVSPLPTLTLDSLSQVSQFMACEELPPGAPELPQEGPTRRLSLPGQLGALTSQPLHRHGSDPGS
experiment.notes: primary screen, population patch clamp on CHO cells stably expressing hERG; higher = less effect of the substance
In all, about 310,000 compounds went through this assay and about 14,000 (4.5%) showed an effect of 50% or more. The effect is printed as a negative number. The entries come from a sample that favours strong results as a whole.
measured.parameter: hERG current change (%, negative = inhibition) at 10uM (%)

CCS(=O)(=O)N1CCN(C2Cc3ccccc3C2)CC1.O=C(O)C(=O)O
3.3
C=CCOc1ccc(CN(C)C(=O)C2CCCO2)cc1 (stereo not shown)
2.34
O=C(NNc1ncccc1-n1cccc1)c1ccc(Cl)cc1
-15.4
COc1cccc(CNC(=O)CCC2CCCN(C(=O)CCC(F)(F)F)C2)c1 (stereo not shown)
-5.17
CCc1ccc2c(c1)Sc1ccccc1CC2N1CCN(C)CC1.CS(=O)(=O)O.O (stereo not shown)
-69
CCCc1nnc(NC(=O)CCC(=O)N2CCN(C3c4ccccc4-c4ccccc43)CC2)s1
-3.76
CC1CCN(c2ccc(C(=O)Nc3ccc4c(c3)OCO4)cc2[N+](=O)[O-])CC1
7.17
N#Cc1sc2nc(-c3cccs3)cc(-c3ccc(Cl)cc3)c2c1N
-2.05
COc1cccc(CNC(=O)CCC2CCCN(Cc3ccc(OC(F)F)cc3)C2)c1 (stereo not shown)
-76.6
COc1cccc(CNC(=O)CCC2CCCN(C(=O)c3ccc(F)c(Cl)c3)C2)c1 (stereo not shown)
-16.6
